Assay: LD50 (acute toxicity)
Conditions: in vivo, po
measured.parameter: LD50

CCC(=O)Nc1cc(C(=O)c2ccccc2)ccc1N1CCOCC1.Cl
> 450 mg/kg
CCC1(c2ccccc2)C(=O)NC(=O)NC1=O [Phenobarbital, reference compound]
240 mg/kg
CCN(c1ccccc1)c1ccc(C(=O)c2ccccc2)cc1N
> 400 mg/kg

###

Assay: in vivo
measured.parameter: TD50 (mg/kg)

CN1CCN(c2ccc(C(=O)c3ccccc3)cc2N)CC1 [C3]
160

###

Test: Rotarod / ataxis and reflex retardation
Conditions: rotarod
measured.parameter: TD50 (mg/kg)

CN(C)CCCN1c2ccccc2CCc2ccccc21 [Imipramine, reference compound]
28
